target: MSK1 (RPS6KA5, IPI00335101) (Homo sapiens, UniProt O75582); construct: endogenous in cells; assay: binding to VI16742 beads (HeLa lysate, SILAC MS); settings: immobilized VI16742
Measured parameter: Ki

Q) Please give the measured Ki for this molecule: CC(C)n1c(=O)ccc2cnc(Nc3ccc(OCCN)cc3)nc21
A) 217 µM

* * *

molecular target: BRD3 (Homo sapiens, UniProt Q15059); test: binding to immobilized V16742 (IVA1/IVA2, HeLa lysate, MS); conditions: EXPERIMENT 1, read-out: Kd
Sequence (Q15059 whole entry): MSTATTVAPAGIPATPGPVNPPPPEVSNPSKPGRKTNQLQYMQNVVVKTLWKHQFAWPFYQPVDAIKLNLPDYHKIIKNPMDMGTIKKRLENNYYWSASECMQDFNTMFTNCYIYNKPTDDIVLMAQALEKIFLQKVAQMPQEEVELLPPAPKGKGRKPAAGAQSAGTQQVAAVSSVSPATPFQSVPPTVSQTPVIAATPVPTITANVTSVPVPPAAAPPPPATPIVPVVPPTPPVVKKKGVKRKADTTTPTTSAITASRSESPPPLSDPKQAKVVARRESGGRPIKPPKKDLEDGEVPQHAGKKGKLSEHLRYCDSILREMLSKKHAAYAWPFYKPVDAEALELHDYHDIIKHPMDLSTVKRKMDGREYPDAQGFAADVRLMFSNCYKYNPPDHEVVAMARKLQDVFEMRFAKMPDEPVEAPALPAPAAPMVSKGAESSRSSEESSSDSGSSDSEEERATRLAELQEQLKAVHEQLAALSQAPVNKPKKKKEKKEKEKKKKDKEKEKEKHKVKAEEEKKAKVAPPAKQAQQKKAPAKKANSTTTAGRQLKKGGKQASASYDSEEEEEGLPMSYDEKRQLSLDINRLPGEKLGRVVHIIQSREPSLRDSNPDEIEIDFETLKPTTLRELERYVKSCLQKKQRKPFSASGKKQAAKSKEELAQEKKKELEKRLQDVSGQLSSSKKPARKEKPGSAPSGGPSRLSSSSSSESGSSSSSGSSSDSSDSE
Measured parameter: Kd (µM)
Answer with a number only, understood to be in µM.

Q) Please give the measured Kd for this molecule: CC(C)n1c(=O)ccc2cnc(Nc3ccc(OCCN)cc3)nc21
A) 37

* * *

target: JNK2 (MAPK9) (Homo sapiens, UniProt P45984); test: binding to AX14596 beads (HeLa lysate, SILAC MS)
Sequence (P45984 whole entry): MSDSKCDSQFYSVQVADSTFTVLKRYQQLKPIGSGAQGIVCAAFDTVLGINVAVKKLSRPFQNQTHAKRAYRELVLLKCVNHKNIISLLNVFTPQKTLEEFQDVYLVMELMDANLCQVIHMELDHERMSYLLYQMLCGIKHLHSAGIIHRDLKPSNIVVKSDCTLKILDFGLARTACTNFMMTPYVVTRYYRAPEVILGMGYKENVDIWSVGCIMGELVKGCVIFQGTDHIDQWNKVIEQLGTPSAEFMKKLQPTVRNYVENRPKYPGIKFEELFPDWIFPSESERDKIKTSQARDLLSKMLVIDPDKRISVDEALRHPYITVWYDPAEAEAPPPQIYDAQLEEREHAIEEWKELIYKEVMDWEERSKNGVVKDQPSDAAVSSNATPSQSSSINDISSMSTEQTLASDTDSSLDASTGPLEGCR
Measured parameter: Ki (µM)
Answer with a number only, understood to be in µM.

Q) Please give the measured Ki for this compound: COc1cc2ncnc(Nc3ccc(F)c(Cl)c3)c2cc1OCCCN
A) 110

* * *

biological target: RPSA (IPI00413108) (Homo sapiens, UniProt P08865); construct: endogenous in cells; test: binding to VI16742 beads (HeLa lysate, SILAC MS); settings: immobilized VI16742
Measured parameter: Ki (µM)
Answer with a number only, understood to be in µM.

Q) Enter reported Ki observed with RPSA (IPI00413108) (Homo sapiens, UniProt P08865) for CC(C)n1c(=O)ccc2cnc(Nc3ccc(OCCN)cc3)nc21 [V16742]
A) 185

* * *

molecular target: RIOK2 (Homo sapiens); construct: endogenous in cells; host or cells: HeLa S3; test: binding to immobilized V16742 (IVA1/IVA2, HeLa lysate, MS); details: Experiment 2, read-out: Kd
Measured parameter: pKd
In plain terms, pKd is the concentration in mol/L turned into minus its base-10 logarithm.

Q) Please give the measured pKd for this compound: CC(C)n1c(=O)ccc2cnc(Nc3ccc(OCCN)cc3)nc21 [V16742]
A) 4.22

* * *

molecular target: GSK3A (Homo sapiens, UniProt P49840); test: binding to immobilized V16742 (IVA1/IVA2, HeLa lysate, MS); details: read-out: Kd Avg
Sequence (P49840 whole entry): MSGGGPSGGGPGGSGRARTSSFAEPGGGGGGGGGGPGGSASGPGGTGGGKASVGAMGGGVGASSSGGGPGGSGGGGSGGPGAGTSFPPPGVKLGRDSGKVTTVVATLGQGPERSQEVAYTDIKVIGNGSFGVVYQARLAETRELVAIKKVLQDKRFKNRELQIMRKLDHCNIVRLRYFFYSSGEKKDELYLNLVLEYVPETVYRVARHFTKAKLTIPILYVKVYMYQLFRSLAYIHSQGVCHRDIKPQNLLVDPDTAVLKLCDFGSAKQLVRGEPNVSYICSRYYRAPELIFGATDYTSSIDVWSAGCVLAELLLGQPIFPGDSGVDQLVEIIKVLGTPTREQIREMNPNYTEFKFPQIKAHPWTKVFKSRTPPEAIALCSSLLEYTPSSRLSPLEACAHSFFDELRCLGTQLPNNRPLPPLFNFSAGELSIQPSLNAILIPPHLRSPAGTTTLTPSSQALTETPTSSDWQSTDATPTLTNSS
Measured parameter: Kd (µM)
Answer with a number only, understood to be in µM.

Q) Please give the measured Kd for this molecule: CC(C)n1c(=O)ccc2cnc(Nc3ccc(OCCN)cc3)nc21
A) 16.6

* * *

biological target: EphB2 (Homo sapiens, UniProt P29323); experiment: binding to immobilized V16742 (IVA1/IVA2, HeLa lysate, MS); details: read-out: Kd Avg
Sequence (P29323 19-1055): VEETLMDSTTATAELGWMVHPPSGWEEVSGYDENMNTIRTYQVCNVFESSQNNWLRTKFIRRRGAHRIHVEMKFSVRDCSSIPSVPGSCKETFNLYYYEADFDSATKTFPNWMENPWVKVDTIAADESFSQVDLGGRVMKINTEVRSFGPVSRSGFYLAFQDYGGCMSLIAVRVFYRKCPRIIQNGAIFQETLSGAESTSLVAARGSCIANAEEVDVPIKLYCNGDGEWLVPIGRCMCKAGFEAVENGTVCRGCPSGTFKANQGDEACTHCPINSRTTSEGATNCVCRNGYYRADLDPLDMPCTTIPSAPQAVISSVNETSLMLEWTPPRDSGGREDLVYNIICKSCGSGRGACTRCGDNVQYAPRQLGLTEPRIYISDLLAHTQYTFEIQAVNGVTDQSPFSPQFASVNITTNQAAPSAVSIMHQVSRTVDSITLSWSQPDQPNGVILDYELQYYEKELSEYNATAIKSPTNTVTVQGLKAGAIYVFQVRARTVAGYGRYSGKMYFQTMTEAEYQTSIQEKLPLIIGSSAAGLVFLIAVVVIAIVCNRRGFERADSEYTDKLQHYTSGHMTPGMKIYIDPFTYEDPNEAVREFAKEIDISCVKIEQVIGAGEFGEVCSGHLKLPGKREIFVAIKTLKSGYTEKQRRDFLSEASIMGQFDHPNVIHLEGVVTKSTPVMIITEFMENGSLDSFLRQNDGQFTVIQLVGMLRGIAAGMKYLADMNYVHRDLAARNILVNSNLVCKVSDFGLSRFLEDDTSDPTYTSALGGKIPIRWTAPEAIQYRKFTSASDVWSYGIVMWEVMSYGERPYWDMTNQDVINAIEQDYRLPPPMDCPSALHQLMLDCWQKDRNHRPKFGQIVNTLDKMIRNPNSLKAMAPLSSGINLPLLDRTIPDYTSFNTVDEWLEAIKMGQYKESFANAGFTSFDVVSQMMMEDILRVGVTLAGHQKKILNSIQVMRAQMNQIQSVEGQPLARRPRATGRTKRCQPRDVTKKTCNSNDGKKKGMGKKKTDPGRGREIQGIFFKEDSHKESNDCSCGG
Measured parameter: Kd (µM)
Answer with a number only, understood to be in µM.

Q) Please give the measured Kd for this molecule: CC(C)n1c(=O)ccc2cnc(Nc3ccc(OCCN)cc3)nc21
A) 36.5

* * *

biological target: UniProt Q15059; test: binding to immobilized V16742 (IVA1/IVA2, HeLa lysate, MS); conditions: read-out: Kd Avg
Measured parameter: Kd (µM)
Answer with a number only, understood to be in µM.

Q) Enter reported Kd observed with UniProt Q15059 for CC(C)n1c(=O)ccc2cnc(Nc3ccc(OCCN)cc3)nc21
A) 35.4

* * *

biological target: UniProt P29323; experiment: binding to AX14596 beads (HeLa lysate, SILAC MS)
Measured parameter: Ki (µM)
Answer with a number only, understood to be in µM.

Q) Please give the measured Ki for this compound: COc1cc2ncnc(Nc3ccc(F)c(Cl)c3)c2cc1OCCCN
A) 213

* * *

target: BUB1 (IPI00783305) (Homo sapiens, UniProt O43683); construct: endogenous in cells; assay: binding to VI16742 beads (HeLa lysate, SILAC MS); conditions: immobilized VI16742
Sequence (O43683 whole entry): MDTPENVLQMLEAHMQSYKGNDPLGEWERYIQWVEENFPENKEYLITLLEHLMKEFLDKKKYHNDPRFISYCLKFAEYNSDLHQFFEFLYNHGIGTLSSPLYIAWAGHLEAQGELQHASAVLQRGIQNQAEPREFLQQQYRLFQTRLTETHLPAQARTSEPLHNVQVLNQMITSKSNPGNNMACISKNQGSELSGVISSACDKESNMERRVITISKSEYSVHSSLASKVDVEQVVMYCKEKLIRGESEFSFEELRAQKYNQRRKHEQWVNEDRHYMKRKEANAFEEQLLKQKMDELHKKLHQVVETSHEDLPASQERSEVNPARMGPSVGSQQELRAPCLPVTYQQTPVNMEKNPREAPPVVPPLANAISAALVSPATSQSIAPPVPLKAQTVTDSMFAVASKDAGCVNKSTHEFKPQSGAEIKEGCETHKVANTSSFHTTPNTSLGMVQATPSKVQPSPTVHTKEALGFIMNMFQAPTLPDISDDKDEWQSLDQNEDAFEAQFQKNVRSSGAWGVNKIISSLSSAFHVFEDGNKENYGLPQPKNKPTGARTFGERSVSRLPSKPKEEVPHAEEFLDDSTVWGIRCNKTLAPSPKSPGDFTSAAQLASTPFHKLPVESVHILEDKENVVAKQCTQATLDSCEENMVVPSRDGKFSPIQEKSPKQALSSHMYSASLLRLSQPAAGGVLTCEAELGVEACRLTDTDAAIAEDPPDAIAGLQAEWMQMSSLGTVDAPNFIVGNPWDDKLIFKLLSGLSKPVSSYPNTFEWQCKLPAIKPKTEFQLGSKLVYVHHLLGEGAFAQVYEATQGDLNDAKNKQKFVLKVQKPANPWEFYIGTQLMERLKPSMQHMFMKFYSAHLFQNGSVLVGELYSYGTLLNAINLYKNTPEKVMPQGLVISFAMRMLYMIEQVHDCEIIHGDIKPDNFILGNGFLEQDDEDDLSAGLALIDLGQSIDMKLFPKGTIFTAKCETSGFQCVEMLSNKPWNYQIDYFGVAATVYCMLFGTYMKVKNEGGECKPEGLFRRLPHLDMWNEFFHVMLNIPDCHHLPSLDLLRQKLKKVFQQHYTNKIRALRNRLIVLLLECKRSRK
Measured parameter: pKi
In plain terms, pKi is the concentration in mol/L turned into minus its base-10 logarithm.

Q) Please give the measured pKi for this compound: CC(C)n1c(=O)ccc2cnc(Nc3ccc(OCCN)cc3)nc21 [V16742]
A) 3.79

* * *

target: p38a (MAPK14, IPI00002857) (Homo sapiens); experiment: binding to AX14596 beads (HeLa lysate, SILAC MS)
Sequence (Q16539 whole entry): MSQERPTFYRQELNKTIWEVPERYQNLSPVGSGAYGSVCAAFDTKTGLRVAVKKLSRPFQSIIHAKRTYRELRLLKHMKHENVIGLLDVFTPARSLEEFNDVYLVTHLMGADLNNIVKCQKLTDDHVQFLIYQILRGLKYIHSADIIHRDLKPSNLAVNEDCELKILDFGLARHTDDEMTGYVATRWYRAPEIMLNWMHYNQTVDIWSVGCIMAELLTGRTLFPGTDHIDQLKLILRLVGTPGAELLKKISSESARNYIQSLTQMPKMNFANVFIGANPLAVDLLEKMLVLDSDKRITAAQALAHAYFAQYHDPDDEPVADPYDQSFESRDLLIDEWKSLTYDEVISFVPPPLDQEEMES
Measured parameter: Ki (µM)
Answer with a number only, understood to be in µM.

Q) Please give the measured Ki for this molecule: COc1cc2ncnc(Nc3ccc(F)c(Cl)c3)c2cc1OCCCN
A) 332

* * *

Target: PHKg2 (PHKG2, IPI00012891) (Homo sapiens, UniProt P15735)
Construct: endogenous in cells; host or cells: HeLa S3
Sequence (P15735 1-406): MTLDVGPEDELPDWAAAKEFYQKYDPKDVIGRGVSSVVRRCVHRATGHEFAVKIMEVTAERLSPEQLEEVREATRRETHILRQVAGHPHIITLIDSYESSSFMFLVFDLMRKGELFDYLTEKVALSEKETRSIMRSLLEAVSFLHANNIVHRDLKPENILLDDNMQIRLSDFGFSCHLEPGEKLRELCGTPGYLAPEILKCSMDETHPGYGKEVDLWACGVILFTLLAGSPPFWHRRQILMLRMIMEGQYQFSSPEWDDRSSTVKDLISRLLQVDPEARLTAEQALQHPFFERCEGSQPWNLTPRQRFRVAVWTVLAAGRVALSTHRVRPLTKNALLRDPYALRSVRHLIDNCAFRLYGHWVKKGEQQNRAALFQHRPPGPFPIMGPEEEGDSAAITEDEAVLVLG
Experiment: binding to VI16742 beads (HeLa lysate, SILAC MS)
Details: immobilized VI16742
Measured parameter: pKi
In plain terms, pKi is the concentration in mol/L turned into minus its base-10 logarithm.

Q) Please give the measured pKi for this compound: CC(C)n1c(=O)ccc2cnc(Nc3ccc(OCCN)cc3)nc21
A) 3.53

* * *

molecular target: p38a (Homo sapiens); construct: endogenous in cells; host or cells: HeLa S3; assay: binding to immobilized V16742 (IVA1/IVA2, HeLa lysate, MS); conditions: p38a (IPI00221141.2); Experiment 2; read-out: Kd
Measured parameter: pKd
In plain terms, pKd is the concentration in mol/L turned into minus its base-10 logarithm.

Q) Enter reported pKd observed with p38a (Homo sapiens) for CC(C)n1c(=O)ccc2cnc(Nc3ccc(OCCN)cc3)nc21 [V16742]
A) 3.78

* * *

molecular target: UniProt:P18124; assay: binding to AX14596 beads (HeLa lysate, SILAC MS)
Measured parameter: Ki (µM)
Answer with a number only, understood to be in µM.

Q) Please give the measured Ki for this molecule: COc1cc2ncnc(Nc3ccc(F)c(Cl)c3)c2cc1OCCCN
A) 2310

* * *

target: MAP3K2 (Homo sapiens); construct: endogenous in cells; host or cells: HeLa S3; experiment: binding to immobilized V16742 (IVA1/IVA2, HeLa lysate, MS); conditions: Experiment 1, read-out: Kd
Sequence (Q9Y2U5 whole entry): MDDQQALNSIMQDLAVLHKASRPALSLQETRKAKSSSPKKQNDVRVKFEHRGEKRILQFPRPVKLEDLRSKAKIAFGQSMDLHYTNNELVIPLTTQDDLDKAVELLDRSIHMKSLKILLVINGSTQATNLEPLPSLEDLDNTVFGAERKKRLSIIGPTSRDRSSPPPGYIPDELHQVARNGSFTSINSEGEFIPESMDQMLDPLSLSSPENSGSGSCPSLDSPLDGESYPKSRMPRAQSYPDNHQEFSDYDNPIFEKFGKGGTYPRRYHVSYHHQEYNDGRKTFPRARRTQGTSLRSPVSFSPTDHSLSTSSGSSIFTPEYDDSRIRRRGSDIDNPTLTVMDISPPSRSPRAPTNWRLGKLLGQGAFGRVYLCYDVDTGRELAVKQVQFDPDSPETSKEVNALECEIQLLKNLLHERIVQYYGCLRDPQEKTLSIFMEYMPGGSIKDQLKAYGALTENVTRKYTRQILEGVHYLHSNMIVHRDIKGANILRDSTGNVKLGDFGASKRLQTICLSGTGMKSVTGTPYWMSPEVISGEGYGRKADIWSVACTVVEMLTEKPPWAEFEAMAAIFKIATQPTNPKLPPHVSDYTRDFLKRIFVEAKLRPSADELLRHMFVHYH
Measured parameter: Kd (µM)
Answer with a number only, understood to be in µM.

Q) Please give the measured Kd for this compound: CC(C)n1c(=O)ccc2cnc(Nc3ccc(OCCN)cc3)nc21 [V16742]
A) 53.2

* * *

target: ERK2 (Homo sapiens); test: binding to immobilized V16742 (IVA1/IVA2, HeLa lysate, MS); details: Erk2; EXPERIMENT 2; read-out: Kd
Measured parameter: Kd (µM)
Answer with a number only, understood to be in µM.

Q) Enter reported Kd observed with ERK2 (Homo sapiens) for CC(C)n1c(=O)ccc2cnc(Nc3ccc(OCCN)cc3)nc21 [compound 16742]
A) 38.5

* * *

Biological target: ERCC2 (IPI00029728)
Experiment: binding to VI16742 beads (HeLa lysate, SILAC MS)
Parameters: species or system human
Details: immobilized VI16742
Text: In an alternative implementation of the chemical proteomic approach according to the invention, the broadly-selective pyrido[2,3-d]pyrimidine-based kinase inhibitor VI16742 has been used for affinity capture (FIG. 10a). […] As shown by gene ontology analysis, the corresponding molecular functions were highly over-represented in proteins specifically retained by the inhibitor resin (FIG. 10b).
Measured parameter: Ki (µM)
Answer with a number only, understood to be in µM.

Q) Please give the measured Ki for this compound: CC(C)n1c(=O)ccc2cnc(Nc3ccc(OCCN)cc3)nc21 [V16742]
A) 118

* * *

target: DYRK1A (Homo sapiens); construct: endogenous in cells; host or cells: HeLa S3; experiment: binding to immobilized V16742 (IVA1/IVA2, HeLa lysate, MS); conditions: Experiment 1, read-out: Kd
Measured parameter: pKd
In plain terms, pKd is the concentration in mol/L turned into minus its base-10 logarithm.

Q) Please give the measured pKd for this compound: CC(C)n1c(=O)ccc2cnc(Nc3ccc(OCCN)cc3)nc21
A) 4.32

* * *

target: MAP3K6 (Homo sapiens); construct: endogenous in cells; host or cells: HeLa S3; assay: binding to immobilized V16742 (IVA1/IVA2, HeLa lysate, MS); settings: Experiment 2, read-out: Kd
Measured parameter: Kd (µM)
Answer with a number only, understood to be in µM.

Q) Enter reported Kd observed with MAP3K6 (Homo sapiens) for CC(C)n1c(=O)ccc2cnc(Nc3ccc(OCCN)cc3)nc21
A) 326

Source: patent US8959984B2
